- system.under.test: Cytochrome P450 1A2 (Homo sapiens)
- protocol.summary: Cytochrome panel assay with activity outcomes
- condition.parameters: recombinant CYP, pro-luciferin dealkylation, luminescence, p450-cyp1a2; series mostly up to 57.1 µM
Screen size: about 16,000 compounds; about 5,700 (36%) were called active. Another 24% or so got no clear call; they are omitted. The list shows a part of the results.
measured.parameter: AC50

Record excerpt, results attached:
{"columns": ["compound", "AC50"],
 "data": [
  ["O=S(=O)(c1ccccc1)N1CCCCC1c1cccnc1 (stereo unspecified)", "inactive"],
  ["O=C1CN=C(c2cccs2)c2c(sc3c2CCCC3)N1", "15.8 µM (active)"],
  ["COC(=O)[C@@H](N)CCCN=C(N)N[N+](=O)[O-]", "inactive"],
  ["CN(C)C(=O)Oc1cc(OC(=O)N(C)C)cc([C@@H](O)CNC(C)(C)C)c1", "inactive"],
  ["CC(=O)OC1N=C(c2ccccc2)c2cc(Br)ccc2N(C)C1=O (stereo unspecified)", "inactive"]
]}

INPUT: Requested read-out: AC50. Entry: Cc1noc(C)c1C(=O)N1CCC2(CCCN(CC(C)C)C2)CC1
OUTPUT: inactive

INPUT: Requested read-out: AC50. Entry: COC(=O)c1cc2c(cn1)[nH]c1ccccc12
OUTPUT: 0.631 µM (active)

INPUT: Requested read-out: AC50. Entry: O=C(Oc1ccccc1)N1CCC2(CC1)CN(C(c1ccccc1)c1ccccc1)C2
OUTPUT: inactive

INPUT: Requested read-out: AC50. Entry: c1cncc(CNc2cc(-c3ccc4c(c3)OCO4)ncn2)c1
OUTPUT: 0.251 µM (active)

INPUT: Requested read-out: AC50. Entry: CCCN(CCC)C1Cc2cc(OC)c(OC)cc2C1
OUTPUT: inactive

INPUT: Requested read-out: AC50. Entry: CC[C@@]1(O)C(=O)OCc2c1cc1n(c2=O)Cc2cc3ccccc3nc2-1
OUTPUT: 2.51 µM (active)

INPUT: Requested read-out: AC50. Entry: CN1[C@@H]2CC[C@H]1CC(O)C2 (stereo partly specified)
OUTPUT: inactive

INPUT: Requested read-out: AC50. Entry: COC(=O)N1CCC2(CCCN(C)C2)CC1
OUTPUT: inactive

INPUT: Requested read-out: AC50. Entry: C[C@H]1CN(C2CCC(C#N)(c3ccc(F)cc3)CC2)CC[C@@]1(C(=O)O)c1ccccc1 (stereo partly specified)
OUTPUT: inactive

INPUT: Requested read-out: AC50. Entry: CN1CC[C@@]2(CCCN(C(=O)c3ccco3)C2)C1
OUTPUT: inactive

INPUT: Requested read-out: AC50. Entry: C[C@@]12CCC(=O)C=C1C=C[C@H]1[C@H]3CC[C@](O)(CCC(=O)O)[C@]3(C)CC[C@@H]12
OUTPUT: inactive

====

- system.under.test: Cytochrome P450 1A2 (Homo sapiens)
- protocol.summary: Cytochrome panel assay with activity outcomes
- condition.parameters: recombinant CYP, pro-luciferin dealkylation, luminescence, p450-cyp1a2; series mostly up to 57.1 µM
- Protocol: The P450 gene superfamily is involved in the metabolism and clearance of xenobiotics. This assay used various human CYP P450 isozymes to measure the dealkylation of various pro-luciferin substrates to luciferin. The luciferin is then measured by luminescence after the addition of a luciferase detection reagent. […] Inhibitors and some substrates limit the production of luciferin, and decrease measured luminescence. […] 8, Detection, 1 sec, ViewLux luminescent read […]
Among all 16,000 compounds or so, about 5,700 (36%) were called active. About 24% were inconclusive and are not listed. Calls come from the whole dose curve; as a rule, active = well fitted curve in the direction sought with a large enough effect; inconclusive = small, poorly fitted or top-dose-only effect, or effect the other way; inactive = no such curve, though single readings can be large or run the other way. Some of the results follow.
Please reply with one of these outcomes: active, inactive

Examples with answers:
{"columns": ["compound", "group"],
 "data": [
  ["C[C@H](N)c1cccc(Cl)c1Cl", "active"],
  ["C=C1[C@@H](O)C2C=CC[C@H](C)C(=O)[C@@](C)(O)C=C[C@@H](OC(C)=O)[C@@]23C(=O)N[C@H](Cc2ccccc2)[C@@H]3[C@@H]1C (some centres not stated)", "inactive"]
]}

Switching to the query record.
INPUT: Given CCN1CCN(Cc2cc(OC)c(OC)cc2[N+](=O)[O-])CC1 , state the outcome it received in this test.
OUTPUT: inactive

====

- system.under.test: Cytochrome P450 1A2 (Homo sapiens)
- protocol.summary: Cytochrome panel assay with activity outcomes
- condition.parameters: recombinant CYP, pro-luciferin dealkylation, luminescence, p450-cyp1a2; series mostly up to 57.1 µM
Among all 16,000 compounds or so, about 5,700 (36%) were called active. About 24% were inconclusive and are not listed. Calls come from the whole dose curve; as a rule, active = well fitted curve in the direction sought with a large enough effect; inconclusive = small, poorly fitted or top-dose-only effect, or effect the other way; inactive = no such curve, though single readings can be large or run the other way. Some of the results follow.
Please reply with one of these outcomes: T for active, F for inactive

Examples with answers:
{"columns": ["molecule", "group"],
 "data": [
  ["CC(C(=O)c1c[nH]c2ccccc12)N1CCSCC1 (stereo unspecified)", "T"],
  ["Cc1ccc(N2C(=O)/C(=C/N3CCN(C(=O)c4ccco4)CC3)C(=O)NC2=S)cc1C", "F"],
  ["Oc1ccc2[nH]cc(CCCCN3CC=C(c4ccccc4)CC3)c2c1", "T"]
]}

INPUT: Given CCCN1CCC[C@@H]2Cc3nc(N)ncc3C[C@H]21 , state the outcome it received in this test.
OUTPUT: F

====

- system.under.test: Cytochrome P450 1A2 (Homo sapiens)
- protocol.summary: Cytochrome panel assay with activity outcomes
- condition.parameters: recombinant CYP, pro-luciferin dealkylation, luminescence, p450-cyp1a2; series mostly up to 57.1 µM
Hit rate of the full screen: of about 16,000 compounds, about 5,700 (36%) were called active. Roughly 24% stayed inconclusive and do not appear here. The list shows a part of the results.
measured.parameter: AC50

{"columns": ["molecule", "AC50"],
 "data": [
  ["c1ccc(CCCCN2CCC(c3ccccc3)CC2)cc1", "15.8 µM (active)"],
  ["CCC(=O)O[C@H]1CC[C@H]2[C@@H]3CCC4=CC(=O)CC[C@]4(C)[C@H]3CC[C@]12C", "inactive"],
  ["CC(O)(CS(=O)(=O)c1ccccc1)C(=O)Nc1cccc(C(F)(F)F)c1 (stereo unspecified)", "inactive"],
  ["O=C(Nc1cccc(C(F)(F)F)c1)c1cccn(Cc2ccc3c(c2)OC(F)(F)O3)c1=O", "3.16 µM (active)"],
  ["CCC(=Nc1cc(OC)ccc1OC)c1c(O)[nH]c(=O)[nH]c1=O", "14.1 µM (active)"]
]}

INPUT: Requested read-out: AC50. Entry: C[N+]12CCC(CC1)[C@@H](OC(=O)C(O)(c1ccccc1)c1ccccc1)C2
OUTPUT: inactive

INPUT: Requested read-out: AC50. Entry: NC(=O)CN1CCCC1=O
OUTPUT: inactive

INPUT: Requested read-out: AC50. Entry: CCN(CC)C(=O)N[C@H]1C[C@H]2c3cccc4[nH]cc(c34)C[C@@H]2N(C)C1
OUTPUT: inactive

INPUT: Requested read-out: AC50. Entry: C[C@@H]1[C@@H]2Cc3ccc(O)cc3[C@@]1(C)CCN2CC1CC1
OUTPUT: inactive

INPUT: Requested read-out: AC50. Entry: CCOc1ccc2c(c1)C(C)=CC(C)(C)N2
OUTPUT: 5.01 µM (active)

INPUT: Requested read-out: AC50. Entry: C[C@H](Br)C(=O)c1ccc2cc(Br)c3ccccc3c2c1
OUTPUT: 0.158 µM (active)

INPUT: Requested read-out: AC50. Entry: COC(=O)CN1CN(c2ccccc2)C2(CCN(Cc3ccc4ccccc4c3)CC2)C1=O
OUTPUT: inactive

====

- system.under.test: Cytochrome P450 1A2 (Homo sapiens) (UniProt P05177)
- Sequence (P05177 whole entry, looked up): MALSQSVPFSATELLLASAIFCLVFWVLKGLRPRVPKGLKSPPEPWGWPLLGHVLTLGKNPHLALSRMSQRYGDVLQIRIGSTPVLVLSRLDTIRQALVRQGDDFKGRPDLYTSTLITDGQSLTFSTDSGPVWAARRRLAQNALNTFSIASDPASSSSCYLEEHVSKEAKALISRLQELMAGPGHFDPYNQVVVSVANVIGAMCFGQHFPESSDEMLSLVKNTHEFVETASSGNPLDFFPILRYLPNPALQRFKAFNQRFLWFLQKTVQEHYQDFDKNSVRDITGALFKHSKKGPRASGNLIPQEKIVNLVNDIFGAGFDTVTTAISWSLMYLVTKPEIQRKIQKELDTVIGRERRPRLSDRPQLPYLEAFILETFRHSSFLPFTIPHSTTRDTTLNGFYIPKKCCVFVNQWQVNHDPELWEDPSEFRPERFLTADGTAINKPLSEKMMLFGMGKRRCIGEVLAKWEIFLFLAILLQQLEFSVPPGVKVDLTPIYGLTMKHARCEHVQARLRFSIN
- protocol.summary: Cytochrome panel assay with activity outcomes
- condition.parameters: recombinant CYP, pro-luciferin dealkylation, luminescence, p450-cyp1a2; series mostly up to 57.1 µM
The campaign covered roughly 16,000 compounds. About 5,700 (36%) were called active. Roughly 24% stayed inconclusive and do not appear here. Some of the results follow.
measured.parameter: AC50

Record excerpt, results attached:
{"columns": ["compound", "recorded.result"],
 "data": [
  ["N[C@@H]1C[C@H]1c1ccccc1", "15.8 µM (active)"],
  ["Cc1cc(OC(=O)CCCNC(=O)OC(C)(C)C)c2c3c(c(=O)oc2c1)CCC3", "2.24 µM (active)"],
  ["COc1cc(C(=O)OC2C[C@H]3CC[C@@H](C2)N3C)ccc1O (stereo not given in full)", "inactive"],
  ["C[C@@]12CC[C@H](O)C[C@@H]1CC[C@H]1[C@@H]2C[C@@H](O)[C@]2(C)[C@@H](C3=CC(=O)OC3)CC[C@]12O", "inactive"]
]}

Turning now to a further compound:
INPUT: Requested read-out: AC50. Entry: N[C@H]1C[C@H]1c1ccccc1
OUTPUT: 5.01 µM (active)

====

- system.under.test: Cytochrome P450 1A2 (Homo sapiens) (UniProt P05177)
- protocol.summary: Cytochrome panel assay with activity outcomes
- condition.parameters: recombinant CYP, pro-luciferin dealkylation, luminescence, p450-cyp1a2; series mostly up to 57.1 µM
Out of some 16,000 compounds screened, about 5,700 (36%) were called active. Inconclusive results (about 24%) are left out. Some of the results follow.
measured.parameter: AC50

Record excerpt, results attached:
{"columns": ["compound", "AC50"],
 "data": [
  ["C/C(=N\\OC(=O)NC(C)C)c1sc(-c2ccc(Cl)cc2)nc1C", "1.12 µM (active)"],
  ["O[Si@](CCCN1CCCCC1)(c1ccc(F)cc1)C1CCCCC1", "inactive"],
  ["O=[N+]([O-])c1ccc(N2CCNCC2)cc1NCC1CCCO1 (stereo unspecified)", "1.41 µM (active)"],
  ["CN1CCN(c2ccc([N+](=O)[O-])c(N/N=C3\\CN4CCC3CC4)c2)CC1", "inactive"],
  ["CNC(C)Cc1ccccc1Sc1ccc(O)cc1 (stereo unspecified)", "inactive"]
]}

Turning now to a further compound:
INPUT: Requested read-out: AC50. Entry: O=[N+]([O-])c1ccc(N2CCNCC2)cc1NC1CC1
OUTPUT: 0.708 µM (active)
